Where do these numbers come from? They come from patent US20060115815A1.

- TARGET_SYSTEM: recombinant HIV-1 protease (Human immunodeficiency virus type 1 group M subtype B)
- EXPERIMENTAL_PROTOCOL: biochemical
- Type: biochemical
- RUN_PARAMETERS: Ki (pM), class symbols, Table 10
METRIC_NAME: Ki

COMPOUND | TARGET_SYSTEM | METRIC_NAME | ENDPOINT_RESULT
CCOC(=O)C(C)OP(=O)(COc1ccc(CC(NC(=O)OC2COC3OCCC23)C(O)CN(CC(C)C)S(=O)(=O)c2ccc(OC)cc2)cc1)Oc1ccccc1 (centres unmarked) [drawing 658 R1=OPh R2=Lac-Et] | recombinant HIV-1 protease (Human immunodeficiency virus type 1 group M subtype B) | Ki | 10 to 100 pM
COC(=O)C(C)OP(=O)(COc1ccc(CC(NC(=O)OC2COC3OCCC23)C(O)CN(CC(C)C)S(=O)(=O)c2ccc(OC)cc2)cc1)Oc1ccccc1 [drawing 658 R1=OPh R2=(R)Lac-Me] | recombinant HIV-1 protease (Human immunodeficiency virus type 1 group M subtype B) | Ki | < 10 pM
COc1ccc(S(=O)(=O)N(CC(C)C)CC(O)C(Cc2ccc(NCP(=O)(NC(C)C(=O)OC(C)C)Oc3ccccc3)cc2)NC(=O)OC2COC3OCCC23)cc1 (centres unmarked) [drawing 705] | recombinant HIV-1 protease (Human immunodeficiency virus type 1 group M subtype B) | Ki | < 10 pM
COc1ccc(S(=O)(=O)N(CC(C)C)CC(O)C(Cc2ccc(NCP(=O)(NC(C)C(=O)OC(C)C)Oc3ccccc3)cc2)NC(=O)OC2COC3OCCC23)cc1 (centres unmarked) [drawing 704] | recombinant HIV-1 protease (Human immunodeficiency virus type 1 group M subtype B) | Ki | 10 to 100 pM

Then there is this compound:
Q: // output Ki; input CCOC(=O)C(C)OP(=O)(CCN(C)Cc1ccc(CC(NC(=O)OC2COC3OCCC23)C(O)CN(CC(C)C)S(=O)(=O)c2ccc(OC)cc2)cc1)Oc1ccccc1 (centres unmarked) [drawing 663 R1=Ph R2=Lac-Et] ; system recombinant HIV-1 protease (Human immunodeficiency virus type 1 group M subtype B)
A: 100 to 1000 pM

###

- TARGET_SYSTEM: 84V90M (Human immunodeficiency virus type 1 group M subtype B, UniProt P04585, I572V/L578M)
- EXPERIMENTAL_PROTOCOL: biochemical
- Set-up: species or system HIV-1
- RUN_PARAMETERS: 84V90M enzyme; read-out: Enzymatic assay 84V90M IC50
This section presents compounds with their documented IC50 values.
Record the value in nM, omitting the unit from your answer.

Q: Using the record for Nc1n[nH]c2ccc(CN3C(=O)N(Cc4cccc(C(=O)O)c4)[C@H](Cc4ccccc4)[C@H](O)[C@@H](O)[C@H]3Cc3ccccc3)cc12 , state its measured IC50.
A: 27

Q: Using the record for O=C1N(Cc2ccccc2)[C@H](Cc2ccccc2)[C@H](O)[C@@H](O)[C@@H](Cc2ccccc2)N1Cc1ccc2[nH]ncc2c1 [drawing 863, reference compound] , state its measured IC50.
A: 43.3

Q: Using the record for CCOC(=O)C(C)OP(=O)(CCCNC(=O)c1cccc(CN2C(=O)N(Cc3ccc4[nH]nc(N)c4c3)[C@H](Cc3ccccc3)[C@H](O)[C@@H](O)[C@H]2Cc2ccccc2)c1)Oc1ccccc1 (stereo partly drawn) , state its measured IC50.
A: 6.4
